target: UniProt:P08913; type: functional, cell-based
Sequence (P08913 whole entry): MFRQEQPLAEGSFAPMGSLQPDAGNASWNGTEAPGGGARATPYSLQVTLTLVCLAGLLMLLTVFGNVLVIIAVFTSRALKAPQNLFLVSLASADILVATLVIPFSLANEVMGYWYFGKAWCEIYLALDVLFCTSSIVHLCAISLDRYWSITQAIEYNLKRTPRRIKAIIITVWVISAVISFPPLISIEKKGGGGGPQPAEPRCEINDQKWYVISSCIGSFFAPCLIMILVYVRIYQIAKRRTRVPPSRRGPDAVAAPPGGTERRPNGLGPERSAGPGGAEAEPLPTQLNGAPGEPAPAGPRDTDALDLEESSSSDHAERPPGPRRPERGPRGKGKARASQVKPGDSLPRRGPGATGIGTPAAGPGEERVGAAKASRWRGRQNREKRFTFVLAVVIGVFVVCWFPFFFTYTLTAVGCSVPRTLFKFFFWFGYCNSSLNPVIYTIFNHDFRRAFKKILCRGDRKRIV
The entries below are paired with their reported AC50.
Assay Metric: AC50

[[record]]
molecule = "NS(=O)(=O)c1cc(Cl)c(Cl)c(S(N)(=O)=O)c1 [DICHLORPHENAMIDE]"
target_entity = "UniProt:P08913"
reading = "> 10 µM"

[[record]]
molecule = "Cc1nc2ccc(CN(C)c3ccc(C(=O)N[C@@H](CCC(=O)O)C(=O)O)s3)cc2c(=O)[nH]1 [RALTITREXED]"
target_entity = "UniProt:P08913"
reading = "> 30 µM"

[[record]]
molecule = "CN(C/C=C/c1ccccc1)Cc1cccc2ccccc12 [NAFTIFINE]"
target_entity = "UniProt:P08913"
reading = "> 10 µM"

[[record]]
molecule = "O=P(O)(O)C(O)(Cc1cccnc1)P(=O)(O)O [RISEDRONIC ACID]"
target_entity = "UniProt:P08913"
reading = "> 30 µM"

[[record]]
molecule = "CN(C)[C@@H]1C(O)=C(C(N)=O)C(=O)[C@@]2(O)C(O)=C3C(=O)c4c(O)ccc(Cl)c4[C@@H](O)[C@H]3C[C@@H]12 [DEMECLOCYCLINE]"
target_entity = "UniProt:P08913"
reading = "> 10 µM"

[[record]]
molecule = "CN[C@@H]1[C@H](O)[C@H](NC)[C@H]2O[C@@]3(O)C(=O)C[C@@H](C)O[C@H]3O[C@@H]2[C@H]1O [SPECTINOMYCIN]"
target_entity = "UniProt:P08913"
reading = "> 10 µM"

[[record]]
molecule = "Cc1ccc(-c2nc3ccc(C)cn3c2CC(=O)N(C)C)cc1 [ZOLPIDEM]"
target_entity = "UniProt:P08913"
reading = "> 30 µM"

[[record]]
molecule = "O=C1CCC(N2C(=O)c3ccccc3C2=O)C(=O)N1 (stereo not drawn) [THALIDOMIDE]"
target_entity = "UniProt:P08913"
reading = "> 10 µM"


These data points were gathered from ChEMBL document CHEMBL5291721.
